Reference source: patent US20250332173A1

- Test system: MYB mRNA
- PROTOCOL: RT-qPCR splicing assay, MYB canonical junction (CJ) and alternative junction (AJ) mRNA
- Format: cell-based, human
- REPORTED CONDITIONS: Homo sapiens; decrease in MYB canonical junction (CJ) mRNA, RT-qPCR; read-out: MYB CJ IC50
READOUT TYPE: IC50

1) CN1CCC(n2cnc3cc(-c4cn[nH]c4)ccc3c2=O)CC1 = > 10000 nM

Consider `Cc1cn2nc(-c3cc(F)c4c(=O)n([C@@H]5CCNC6(CC6)C5)ncc4c3)cc(C)c2n1` . Its measured IC50 is < 100 nM

Consider `Cc1cn2nc(-c3ccc4c(=O)n(C5CCNCC5)ccc4n3)cc(C)c2n1` . Its measured IC50 is < 100 nM

Consider `Cc1cn2nc(-c3ccc4c(=O)n([C@H]5CCNC5)ccc4n3)cc(C)c2n1` . Its measured IC50 is 100 to 1000 nM

* * *

// pIC50 lookup, one value per entry
- Test system: Target C
- PROTOCOL: HiBiT protein abundance assay, Target C (Promega Nano-Glo HiBiT Lytic Detection System, knock-in K562 cell line)
- Format: cell-based, human
- REPORTED CONDITIONS: Homo sapiens, K562, 24 h, HiBiT K562 cell line, 24 hours, top dose 10 μM; read-out: Effect on protein abundance, Target C (IC50 category)
pIC50: −log10 of the molar value. Counter-ions that a name gives are not always drawn.

1) Cc1cn2cc(-c3cc(F)c4c(=O)n(C5CCNC6(CC6)C5)ccc4c3)cc(C)c2n1 (stereo not shown) = > 7.00
2) Cc1cn2cc(-c3ccc4c(=O)n(C5CCN(C)CC5)cnc4c3)cc(F)c2n1 = 5.00 to 6.00
3) Cn1cc2cc(-c3ncc4c(=O)n(C5CCNCC5)ccc4n3)c(O)c(F)c2n1 = > 7.00

Consider `Cc1cn2cc(-c3cc(F)c4c(=O)n(C5CCNCC5)cnc4c3)cc(C)c2n1` . Its measured pIC50 is 6.00 to 7.00

Consider `Cc1cn2cc(-c3ccc4c(c3)CCN(C3CCNCC3)C4=O)c(C)cc2n1` . Its measured pIC50 is 5.00 to 6.00

Consider `CN1CCC(n2cnc3cc(-c4ccc5nn(C)cc5c4)ccc3c2=O)CC1` . Its measured pIC50 is < 5.00

Consider Cc1cn2nc(-c3ccc4c(=O)n(C5CCCNC5)ccc4c3)cc(C)c2n1 (stereo in doubt) . Its measured pIC50 is 5.00 to 6.00

Consider `Cn1cc2cc(-c3ccc4c(c3)CCN(C3CCNCC3)C4=O)cc(F)c2n1` . Its measured pIC50 is < 5.00

Consider `O=C1c2ccc(-c3cn[nH]c3)cc2CCN1C1CCNCC1` . Its measured pIC50 is < 5.00

Consider `Cc1cn2cc(-c3cc(F)c4c(=O)n(C5=CCNCC5)cnc4c3)cc(F)c2n1` . Its measured pIC50 is 6.00 to 7.00

Consider `Cc1cn2nc(-c3ccc4c(=O)n(C5CCNCC5)ccc4c3)cc(CC(N)=O)c2n1` . Its measured pIC50 is 6.00 to 7.00

Consider `Cc1cn2cc(-c3ccc4c(=O)n([C@@H]5CCN[C@@H](C)C5)cnc4c3)cc(F)c2n1` . Its measured pIC50 is 5.00 to 6.00

Consider `Cc1nc2cc(O)c(-c3ccc4c(=O)n(C5CCNCC5)ccc4n3)cc2o1` . Its measured pIC50 is > 7.00

Consider Cc1cn2cc(-c3cc(F)c4c(=O)n(C5CCOC5)cnc4c3)cc(C#N)c2n1 (stereo in doubt) [Compound 499] . Its measured pIC50 is 6.00 to 7.00

Consider Cc1cn2nc(-c3ccc4c(=O)n(C5CCN(C)C5)ncc4c3)cc(C)c2n1 (stereo not shown) . Its measured pIC50 is 5.00 to 6.00

Consider Cc1cn2nc(-c3ccc4c(=O)n(C5CCNCC5)ccc4c3)cc(Oc3ccc(F)cc3)c2n1 [Compound 546, hydrochloride] . Its measured pIC50 is > 7.00
